Data provenance: BigSolDB 2.1

- testConditions: in 3-pentanone, 278.15 K
metricName: solubility (mole fraction)

> print(dat)
                                entrysmiles                  metricname  readoutnumber
1  O=C(NC[C@H]1CN(c2ccc(N3CCOCC3=O)cc2)C(=O)O1)c1ccc(Cl)s1  solubility (mole fraction)       3.11e-05

* * *

- testConditions: in 2-hexanone, 283.15 K
metricName: solubility (mole fraction)

> print(dat)
                                entrysmiles  readoutnumber
1  O=C(NC[C@H]1CN(c2ccc(N3CCOCC3=O)cc2)C(=O)O1)c1ccc(Cl)s1       2.79e-05

* * *

- testConditions: in 2-butanone, 313.15 K
metricName: solubility (mole fraction)

> print(dat)
                                entrysmiles                  metricname  readoutnumber
1  O=C(NC[C@H]1CN(c2ccc(N3CCOCC3=O)cc2)C(=O)O1)c1ccc(Cl)s1  solubility (mole fraction)       0.000236

* * *

- testConditions: in 3-pentanone, 298.15 K
metricName: solubility (mole fraction)

> print(dat)
                                entrysmiles  readoutnumber
1  O=C(NC[C@H]1CN(c2ccc(N3CCOCC3=O)cc2)C(=O)O1)c1ccc(Cl)s1       7.64e-05

* * *

- testConditions: in 2-hexanone, 308.15 K
metricName: solubility (mole fraction)

> print(dat)
                                entrysmiles  readoutnumber
1  O=C(NC[C@H]1CN(c2ccc(N3CCOCC3=O)cc2)C(=O)O1)c1ccc(Cl)s1       7.54e-05

* * *

- testConditions: in methyl acetate, 318.15 K
metricName: solubility (mole fraction)

> print(dat)
                                entrysmiles                  metricname    result
1  O=C(NC[C@H]1CN(c2ccc(N3CCOCC3=O)cc2)C(=O)O1)c1ccc(Cl)s1  solubility (mole fraction)  0.000202

* * *

- testConditions: in 2-hexanone, 293.15 K
metricName: solubility (mole fraction)

> print(dat)
                                entrysmiles  readoutnumber
1  O=C(NC[C@H]1CN(c2ccc(N3CCOCC3=O)cc2)C(=O)O1)c1ccc(Cl)s1       4.24e-05

* * *

- testConditions: in 2-butanone, 308.15 K
metricName: solubility (mole fraction)

> print(dat)
                                entrysmiles                  metricname  readoutnumber
1  O=C(NC[C@H]1CN(c2ccc(N3CCOCC3=O)cc2)C(=O)O1)c1ccc(Cl)s1  solubility (mole fraction)       0.000191

* * *

- testConditions: in 2-butanone, 273.15 K
metricName: solubility (mole fraction)

> print(dat)
                                entrysmiles                  metricname  readoutnumber
1  O=C(NC[C@H]1CN(c2ccc(N3CCOCC3=O)cc2)C(=O)O1)c1ccc(Cl)s1  solubility (mole fraction)       3.47e-05

* * *

- testConditions: in acetonitrile, 318.15 K
metricName: solubility (mole fraction)

> print(dat)
                                entrysmiles    result
1  O=C(NC[C@H]1CN(c2ccc(N3CCOCC3=O)cc2)C(=O)O1)c1ccc(Cl)s1  0.000312

* * *

- testConditions: in methyl acetate, 308.15 K
metricName: solubility (mole fraction)

> print(dat)
                                entrysmiles                  metricname  readoutnumber
1  O=C(NC[C@H]1CN(c2ccc(N3CCOCC3=O)cc2)C(=O)O1)c1ccc(Cl)s1  solubility (mole fraction)       0.000141

* * *

- testConditions: in methyl acetate, 298.15 K
metricName: solubility (mole fraction)

> print(dat)
                                entrysmiles  readoutnumber
1  O=C(NC[C@H]1CN(c2ccc(N3CCOCC3=O)cc2)C(=O)O1)c1ccc(Cl)s1       9.54e-05

* * *

- testConditions: in 1,4-dioxane, 313.15 K
metricName: solubility (mole fraction)

> print(dat)
                                entrysmiles  readoutnumber
1  O=C(NC[C@H]1CN(c2ccc(N3CCOCC3=O)cc2)C(=O)O1)c1ccc(Cl)s1       0.000311

* * *

- testConditions: in 2-hexanone, 313.15 K
metricName: solubility (mole fraction)

> print(dat)
                                entrysmiles  readoutnumber
1  O=C(NC[C@H]1CN(c2ccc(N3CCOCC3=O)cc2)C(=O)O1)c1ccc(Cl)s1       9.03e-05

* * *

- testConditions: in 2-hexanone, 278.15 K
metricName: solubility (mole fraction)

> print(dat)
                                entrysmiles  readoutnumber
1  O=C(NC[C@H]1CN(c2ccc(N3CCOCC3=O)cc2)C(=O)O1)c1ccc(Cl)s1       2.24e-05

* * *

- testConditions: in methyl acetate, 283.15 K
metricName: solubility (mole fraction)

> print(dat)
                                entrysmiles    result
1  O=C(NC[C@H]1CN(c2ccc(N3CCOCC3=O)cc2)C(=O)O1)c1ccc(Cl)s1  5.07e-05

* * *

- testConditions: in 2-hexanone, 298.15 K
metricName: solubility (mole fraction)

> print(dat)
                                entrysmiles  readoutnumber
1  O=C(NC[C@H]1CN(c2ccc(N3CCOCC3=O)cc2)C(=O)O1)c1ccc(Cl)s1       5.17e-05

* * *

- testConditions: in acetonitrile, 293.15 K
metricName: solubility (mole fraction)

> print(dat)
                                entrysmiles  readoutnumber
1  O=C(NC[C@H]1CN(c2ccc(N3CCOCC3=O)cc2)C(=O)O1)c1ccc(Cl)s1       0.000119

* * *

- testConditions: in 2-hexanone, 303.15 K
metricName: solubility (mole fraction)

> print(dat)
                                entrysmiles    result
1  O=C(NC[C@H]1CN(c2ccc(N3CCOCC3=O)cc2)C(=O)O1)c1ccc(Cl)s1  6.27e-05

* * *

- testConditions: in acetone, 308.15 K
metricName: solubility (mole fraction)

> print(dat)
                                entrysmiles  readoutnumber
1  O=C(NC[C@H]1CN(c2ccc(N3CCOCC3=O)cc2)C(=O)O1)c1ccc(Cl)s1       0.000216

* * *

- testConditions: in 3-pentanone, 288.15 K
metricName: solubility (mole fraction)

> print(dat)
                                entrysmiles                  metricname    result
1  O=C(NC[C@H]1CN(c2ccc(N3CCOCC3=O)cc2)C(=O)O1)c1ccc(Cl)s1  solubility (mole fraction)  4.95e-05

* * *

- testConditions: in acetonitrile, 298.15 K
metricName: solubility (mole fraction)

> print(dat)
                                entrysmiles  readoutnumber
1  O=C(NC[C@H]1CN(c2ccc(N3CCOCC3=O)cc2)C(=O)O1)c1ccc(Cl)s1       0.000146

* * *

- testConditions: in 3-pentanone, 303.15 K
metricName: solubility (mole fraction)

> print(dat)
                                entrysmiles  readoutnumber
1  O=C(NC[C@H]1CN(c2ccc(N3CCOCC3=O)cc2)C(=O)O1)c1ccc(Cl)s1       9.39e-05

* * *

- testConditions: in methyl acetate, 303.15 K
metricName: solubility (mole fraction)

> print(dat)
                                entrysmiles                  metricname  readoutnumber
1  O=C(NC[C@H]1CN(c2ccc(N3CCOCC3=O)cc2)C(=O)O1)c1ccc(Cl)s1  solubility (mole fraction)       0.000116

* * *

- testConditions: in 1,4-dioxane, 328.15 K
metricName: solubility (mole fraction)

> print(dat)
                                entrysmiles                  metricname  readoutnumber
1  O=C(NC[C@H]1CN(c2ccc(N3CCOCC3=O)cc2)C(=O)O1)c1ccc(Cl)s1  solubility (mole fraction)       0.000488

* * *

- testConditions: in acetone, 283.15 K
metricName: solubility (mole fraction)

> print(dat)
                                entrysmiles  readoutnumber
1  O=C(NC[C@H]1CN(c2ccc(N3CCOCC3=O)cc2)C(=O)O1)c1ccc(Cl)s1       6.83e-05

* * *

- testConditions: in 1,4-dioxane, 293.15 K
metricName: solubility (mole fraction)

> print(dat)
                                entrysmiles                  metricname  readoutnumber
1  O=C(NC[C@H]1CN(c2ccc(N3CCOCC3=O)cc2)C(=O)O1)c1ccc(Cl)s1  solubility (mole fraction)       0.000158
